Assay: Plasma lactulose after oral lactulose solution in canine NSAID-induced gastric ulceration model (ion chromatography)
Format: in vivo, dog
Details: dog, plasma, po, 30 min after 0.6-0.7 g/kg PO; ulceration Moderate to severe (n = 4)
observable: concentration at 30 min (µM)
Numbers only, in µM.

Record summary for OC[C@H]1O[C@@H](O[C@@H]2[C@@H](CO)OC(O)(CO)[C@H]2O)[C@H](O)[C@@H](O)[C@H]1O (mixture of isomers) : reported concentration at 30 min = 144

====

Assay: Plasma lactulose after oral lactulose solution in canine NSAID-induced gastric ulceration model (ion chromatography)
Type: in vivo, dog
Conditions: dog, plasma, po, 60 min after 0.6-0.7 g/kg PO; ulceration Absent (n = 8)
observable: concentration at 60 min (µM)
Answers are plain numbers, in µM.

Record summary for OC[C@H]1O[C@@H](O[C@@H]2[C@@H](CO)OC(O)(CO)[C@H]2O)[C@H](O)[C@@H](O)[C@H]1O (mixture of isomers) [Lactulose, lactulose] : reported concentration at 60 min = 61.1

====

Assay: Plasma lactulose after oral lactulose solution in canine NSAID-induced gastric ulceration model (ion chromatography)
Assay type: in vivo, dog
Details: dog, plasma, po, 60 min after 0.6-0.7 g/kg PO; ulceration Mild (n = 4)
observable: concentration at 60 min (µM)
Answers are plain numbers, in µM.

Record summary for OC[C@H]1O[C@@H](O[C@@H]2[C@@H](CO)OC(O)(CO)[C@H]2O)[C@H](O)[C@@H](O)[C@H]1O (mixture of isomers) : reported concentration at 60 min = 110

====

Assay: Plasma lactulose after oral lactulose solution in canine NSAID-induced gastric ulceration model (ion chromatography)
Format: in vivo, dog
Details: dog, plasma, po, 10 min after 0.6-0.7 g/kg PO; ulceration Mild (n = 4)
observable: concentration at 10 min (µM)
One number for each entry, in µM.

Record summary for OC[C@H]1O[C@@H](O[C@@H]2[C@@H](CO)OC(O)(CO)[C@H]2O)[C@H](O)[C@@H](O)[C@H]1O (mixture of isomers) : reported concentration at 10 min = 44.6

====

Assay: Electrochemical dual-enzyme (β-Gal/GalOx) biosensor quantification of lactulose in canine plasma sample by amperometry
Type: in vivo
Conditions: dog, oral, canine plasma sample CAN 84049 D6 t60, standard additions calibration, read-out: lactulose concentration in the original plasma sample
observable: concentration at 60 min

Record summary for OC[C@H]1O[C@@H](O[C@@H]2[C@@H](CO)OC(O)(CO)[C@H]2O)[C@H](O)[C@@H](O)[C@H]1O (mixture of isomers) : reported concentration at 60 min = 275 to 400 µM

====

Experiment: Plasma lactulose after oral lactulose solution in canine NSAID-induced gastric ulceration model (ion chromatography)
Format: in vivo, dog
Settings: dog, plasma, po, 20 min after 0.6-0.7 g/kg PO; ulceration Mild (n = 4)
observable: concentration at 20 min (µM)
Give bare numbers, in µM.

Record summary for OC[C@H]1O[C@@H](O[C@@H]2[C@@H](CO)OC(O)(CO)[C@H]2O)[C@H](O)[C@@H](O)[C@H]1O (mixture of isomers) [Lactulose, lactulose] : reported concentration at 20 min = 68.7

====

Test: Plasma lactulose after oral lactulose solution in canine NSAID-induced gastric ulceration model (ion chromatography)
Assay type: in vivo, dog
Conditions: dog, plasma, po, 30 min after 0.6-0.7 g/kg PO; ulceration Absent (n = 8)
observable: concentration at 30 min (µM)
Numbers only, in µM.

Record summary for OC[C@H]1O[C@@H](O[C@@H]2[C@@H](CO)OC(O)(CO)[C@H]2O)[C@H](O)[C@@H](O)[C@H]1O (mixture of isomers) : reported concentration at 30 min = 46
